- MEASURED_TARGET: Cannabinoid receptor 1 (Homo sapiens)
- PROCEDURE_TEXT: Positive allosteric modulatory activity at human CB1 receptor expressed in CHO-K1 cells assessed as increase in CP55940-induced beta-arrestin recruitment […] and measured after 60 mins by PathHunter assay
- Format: cell-based
Can you tell me EC50 for the items I'm about to list?

O=[N+]([O-])CC(c1cccc(N2CCCC2)c1)c1c(-c2ccccc2)[nH]c2ccccc12 (stereo unspecified)
> 10000 nM
O=[N+]([O-])CC(c1nccs1)c1c(-c2ccccc2)[nH]c2ccccc12 (stereo unspecified)
331 nM
O=[N+]([O-])CC(c1ccc(N2CCCC2)cc1)c1c(-c2ccccc2)[nH]c2ccccc12 (stereo unspecified)
> 10000 nM

// each compound listed below needs its EC50
1. O=[N+]([O-])CC(c1cccs1)c1c(-c2ccccc2)[nH]c2ccccc12 (stereo unspecified)
2. O=[N+]([O-])CC(c1ccc(-c2ccccc2)cc1)c1c(-c2ccccc2)[nH]c2ccccc12 (stereo unspecified)
3. O=[N+]([O-])CC(c1ccccc1C(F)(F)F)c1c(-c2ccccc2)[nH]c2ccccc12 (stereo unspecified)

## Result
584 nM
> 10000 nM
792 nM

----------
Can you tell me Emax for the items I'm about to list?
- MEASURED_TARGET: Cannabinoid receptor 1 (Homo sapiens, UniProt P21554)
- Sequence (P21554 whole entry): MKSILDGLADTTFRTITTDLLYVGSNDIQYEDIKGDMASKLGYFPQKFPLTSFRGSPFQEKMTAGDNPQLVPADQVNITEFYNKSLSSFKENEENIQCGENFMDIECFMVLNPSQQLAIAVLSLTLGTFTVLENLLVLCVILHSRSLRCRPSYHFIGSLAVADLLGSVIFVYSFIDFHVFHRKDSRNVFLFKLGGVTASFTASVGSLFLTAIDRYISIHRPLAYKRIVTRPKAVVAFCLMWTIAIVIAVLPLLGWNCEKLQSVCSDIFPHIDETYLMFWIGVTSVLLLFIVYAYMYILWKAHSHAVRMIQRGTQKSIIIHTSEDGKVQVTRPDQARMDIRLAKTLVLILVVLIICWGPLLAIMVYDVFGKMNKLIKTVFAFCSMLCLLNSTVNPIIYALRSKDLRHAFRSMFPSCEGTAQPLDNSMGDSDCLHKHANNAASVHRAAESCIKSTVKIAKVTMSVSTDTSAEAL
- PROCEDURE_TEXT: Positive allosteric modulatory activity at human CB1 receptor expressed in CHO-K1 cells assessed as increase in CP55940-induced beta-arrestin recruitment preincubated 90 mins followed by CP55940 addition and measured after 60 mins by PathHunter assay relative to CP55940
- Format: cell-based
Numbers only, in %.

Take a look at these entries with their results.
COc1ccc(C(C[N+](=O)[O-])c2c(-c3ccccc3)[nH]c3ccccc23)cc1 (centres undefined)
0
O=[N+]([O-])CC(c1ccc(Cl)cc1)c1c(-c2ccccc2)[nH]c2ccccc12 (centres undefined)
0
O=[N+]([O-])CC(c1cccc(C(F)(F)F)c1)c1c(-c2ccccc2)[nH]c2ccccc12 (centres undefined)
0
Cn1cncc1C(C[N+](=O)[O-])c1c(-c2ccccc2)[nH]c2ccccc12 (centres undefined)
0
COc1cccc(C(C[N+](=O)[O-])c2c(-c3ccccc3)[nH]c3ccccc23)c1 (centres undefined)
4.96

// each compound listed below needs its Emax
1. O=[N+]([O-])CC(c1ccc(N2CCOCC2)cc1)c1c(-c2ccccc2)[nH]c2ccccc12 (centres undefined)
2. Cn1cnc(C(C[N+](=O)[O-])c2c(-c3ccccc3)[nH]c3ccccc23)c1 (centres undefined)
3. O=[N+]([O-])CC(c1ccc[nH]1)c1c(-c2ccccc2)[nH]c2ccccc12 (centres undefined)
4. O=[N+]([O-])CC(c1cccs1)c1c(-c2ccccc2)[nH]c2ccccc12 (centres undefined)
5. O=[N+]([O-])CC(c1ccccc1N1CCCC1)c1c(-c2ccccc2)[nH]c2ccccc12 (centres undefined)
6. O=[N+]([O-])CC(c1cccc(Cl)c1)c1c(-c2ccccc2)[nH]c2ccccc12 (centres undefined)
7. COc1ccccc1C(C[N+](=O)[O-])c1c(-c2ccccc2)[nH]c2ccccc12 (centres undefined)

## Result
0
0.667
0.7
36.1
7.28
16
37

// each compound listed below needs its Emax
1. O=[N+]([O-])CC(c1ccc(N2CCCC2)cc1)c1c(-c2ccccc2)[nH]c2ccccc12 (centres undefined)
2. O=[N+]([O-])CC(c1cccc(N2CCCC2)c1)c1c(-c2ccccc2)[nH]c2ccccc12 (centres undefined)
3. O=[N+]([O-])CC(c1ccsc1)c1c(-c2ccccc2)[nH]c2ccccc12 (centres undefined)
4. O=[N+]([O-])CC(c1ccc2ccccc2c1)c1c(-c2ccccc2)[nH]c2ccccc12 (centres undefined)

## Result
1: 0; 2: 6.69; 3: 23.9; 4: 31.8

// each compound listed below needs its Emax
1. O=[N+]([O-])CC(c1ccoc1)c1c(-c2ccccc2)[nH]c2ccccc12 (centres undefined)
2. Cc1ccc(C(C[N+](=O)[O-])c2c(-c3ccccc3)[nH]c3ccccc23)cc1 (centres undefined)
3. O=[N+]([O-])CC(c1c(Cl)cccc1Cl)c1c(-c2ccccc2)[nH]c2ccccc12 (centres undefined)

## Result
[12.9, 0, 3.72]

----------
- MEASURED_TARGET: Cannabinoid receptor 1 (Homo sapiens, UniProt P21554)
- PROCEDURE_TEXT: Positive allosteric modulatory activity at human CB1 receptor expressed in CHO-K1 cells assessed as increase in CP55940-induced beta-arrestin recruitment […] and measured after 60 mins by PathHunter assay
- Assay type: cell-based
Returns: string. Value is met if measured EC50 is below 2000 nM, and not met if it is greater than or equal to it.

COc1ccccc1C(C[N+](=O)[O-])c1c(-c2ccccc2)[nH]c2ccccc12 (stereo not given)
met

## Task Check if EC50 falls below 2000 nM for Cn1cnc(C(C[N+](=O)[O-])c2c(-c3ccccc3)[nH]c3ccccc23)c1 (stereo not given) .
## Result not met

## Task Check if EC50 falls below 2000 nM for O=[N+]([O-])CC(c1ccsc1)c1c(-c2ccccc2)[nH]c2ccccc12 (stereo not given) .
## Result met

## Task Check if EC50 falls below 2000 nM for COc1ccc(C(C[N+](=O)[O-])c2c(-c3ccccc3)[nH]c3ccccc23)cc1 (stereo not given) .
## Result not met

## Task Check if EC50 falls below 2000 nM for Cc1ccc2c(C(C[N+](=O)[O-])c3ncco3)c(-c3ccccc3)[nH]c2c1 (stereo not given) .
## Result not met

## Task Check if EC50 falls below 2000 nM for O=[N+]([O-])CC(c1ccc(F)cc1)c1c(-c2ccccc2)[nH]c2ccccc12 (stereo not given) .
## Result not met

## Task Check if EC50 falls below 2000 nM for O=[N+]([O-])CC(c1c(Cl)cccc1Cl)c1c(-c2ccccc2)[nH]c2ccccc12 (stereo not given) .
## Result not met

## Task Check if EC50 falls below 2000 nM for Cc1ccc2c(C(C[N+](=O)[O-])c3cccs3)c(-c3ccccc3)[nH]c2c1 (stereo not given) .
## Result met

## Task Check if EC50 falls below 2000 nM for O=[N+]([O-])CC(Cc1ccccc1)c1c(-c2ccccc2)[nH]c2ccccc12 (stereo not given) .
## Result not met

## Task Check if EC50 falls below 2000 nM for O=[N+]([O-])CC(c1ncco1)c1c(-c2ccccc2)[nH]c2ccccc12 (stereo not given) .
## Result not met

## Task Check if EC50 falls below 2000 nM for O=[N+]([O-])CC(c1ccccc1Cl)c1c(-c2ccccc2)[nH]c2ccccc12 (stereo not given) .
## Result met

----------
- MEASURED_TARGET: Cannabinoid receptor 1 (Homo sapiens, UniProt P21554)
- PROCEDURE_TEXT: Positive allosteric modulatory activity at human CB1 receptor expressed in CHO-K1 cells assessed as increase in CP55940-induced beta-arrestin recruitment preincubated 90 mins followed by CP55940 addition and measured after 60 mins by PathHunter assay relative to CP55940
- Type: cell-based
Can you tell me Emax for the items I'm about to list?
One number for each entry, in %.

Take a look at these entries with their results.
Cn1ccnc1C(C[N+](=O)[O-])c1c(-c2ccccc2)[nH]c2ccccc12 (stereo not drawn)
0
O=[N+]([O-])CC(c1ncco1)c1c(-c2ccccc2)[nH]c2ccccc12 (stereo not drawn)
3.21
O=[N+]([O-])CC(c1ccco1)c1c(-c2ccccc2)[nH]c2ccccc12 (stereo not drawn)
28.8

// each compound listed below needs its Emax
1. O=[N+]([O-])CC(Cc1ccccc1)c1c(-c2ccccc2)[nH]c2ccccc12 (stereo not drawn)
2. CC(C)(C)c1ccc(C(C[N+](=O)[O-])c2c(-c3ccccc3)[nH]c3ccccc23)cc1 (stereo not drawn)
3. O=[N+]([O-])CC(c1ccc(C(F)(F)F)cc1)c1c(-c2ccccc2)[nH]c2ccccc12 (stereo not drawn)

## Result
1. 0
2. 5.57
3. 0

// each compound listed below needs its Emax
1. Cc1ccc2c(C(C[N+](=O)[O-])c3ncco3)c(-c3ccccc3)[nH]c2c1 (stereo not drawn)
2. O=[N+]([O-])CC(c1cccc2ccccc12)c1c(-c2ccccc2)[nH]c2ccccc12 (stereo not drawn)
3. O=[N+]([O-])CC(c1nccs1)c1c(-c2ccccc2)[nH]c2ccccc12 (stereo not drawn)

## Result
1. 14.5
2. 0
3. 32.6

// each compound listed below needs its Emax
1. O=[N+]([O-])CC(c1c(-c2ccccc2)[nH]c2ccccc12)C1CCCCC1 (stereo not drawn)
2. O=[N+]([O-])CC(c1cccc(F)c1)c1c(-c2ccccc2)[nH]c2ccccc12 (stereo not drawn)
3. O=[N+]([O-])CC(c1ccc(-c2ccccc2)cc1)c1c(-c2ccccc2)[nH]c2ccccc12 (stereo not drawn)
4. Cc1cccc(C(C[N+](=O)[O-])c2c(-c3ccccc3)[nH]c3ccccc23)c1 (stereo not drawn)

## Result
1. 26.8
2. 15.7
3. 5
4. 23.8

----------
- PROCEDURE_TEXT: physchem
- TEST_SETTINGS: PBS, pH 7.4
Can you tell me solubility kinetic at 2 h for the items I'm about to list?
Numbers only, in µM.

Cc1ccc2c(C(C[N+](=O)[O-])c3nccs3)c(-c3ccccc3)[nH]c2c1 (stereo not drawn)
3.13
Cc1ccc2c(C(C[N+](=O)[O-])c3ncco3)c(-c3ccccc3)[nH]c2c1 (stereo not drawn)
12.5

Kindly consider the entry below.
## Task May I ask what solubility kinetic at 2 h has been recorded for Cc1ccc2c(C(C[N+](=O)[O-])c3cccs3)c(-c3ccccc3)[nH]c2c1 (stereo not drawn) ?
## Result 1.56
